Would you mind telling me the reported growth inhibition by drug alone of each entry?
system: U-2932; test: growth inhibition by drug alone (1 - RLU/untreated control) (fraction); higher = stronger inhibition; conditions: 1000 nM; time (day): 6; 177Lu-lilotomab satetraxetan 0 ug/ml
Answers are plain numbers.

Some entries whose results are on file:
{"columns": ["compound", "number"],
 "data": [
  ["O=c1c(O)c(-c2ccc(O)c(O)c2)oc2cc(O)cc(O)c12 [Quercetin (Sophoretin)]", -0.101],
  ["CCOc1ccc(Nc2nc(-c3c(C)nc4ccccn34)cs2)cc1", 0.982],
  ["CCN(CC)CCCCNc1ncc2cc(-c3cc(OC)cc(OC)c3)c(NC(=O)NC(C)(C)C)nc2n1", 0.0716]
]}

// batch mode: one growth inhibition by drug alone value per listed entry
1. C#Cc1cccc(Nc2ncnc3cc(OC)c(OCCCCCCC(=O)NO)cc23)c1
2. O=C(/C=C/c1cccc(S(=O)(=O)Nc2ccccc2)c1)NO [Belinostat (PXD101)]
3. C=CCn1c(=O)c2cnc(Nc3ccc(N4CCN(C)CC4)cc3)nc2n1-c1cccc(C(C)(C)O)n1
4. C[C@]12CC[C@@H]3c4ccc(O)cc4CC[C@H]3[C@@H]1CC[C@@H]2O [Estradiol]
5. CCC(C)(C)C(=O)O[C@H]1C[C@@H](C)C=C2C=C[C@H](C)[C@H](CC[C@@H]3C[C@@H](O)CC(=O)O3)[C@H]21 [Simvastatin (Zocor)]
6. FC(F)c1nc2ccccc2n1-c1nc(N2CCOCC2)nc(N2CCOCC2)n1
7. CCN(CC)CCOc1ccc(Nc2ncc3cc(-c4c(Cl)cccc4Cl)c(=O)n(C)c3n2)cc1

Out:
1: 0.978; 2: 0.979; 3: 0.936; 4: -0.0239; 5: -0.0808; 6: 0.367; 7: 0.774

Consider the following items and state reported growth inhibition by drug alone for each.
1. Cc1ccc(-c2cc(C(F)(F)F)nn2-c2ccc(S(N)(=O)=O)cc2)cc1 [Celecoxib]
2. CC(C)(C)c1cc(NC(=O)Nc2ccc(-c3cn4c(n3)sc3cc(OCCN5CCOCC5)ccc34)cc2)no1 [Quizartinib (AC220)]
3. COc1ccc(C2CC(c3ccccc3)=NN2c2ccc(S(N)(=O)=O)cc2)cc1 (stereo not drawn)
4. Cc1oc(S(=O)(=O)N2CCCCC2)cc1NC(=O)Nc1ccccc1
5. CC(C)(C)c1ccc(S(=O)(=O)/C=C/C#N)cc1
6. COc1cc2ncnc(Nc3ccc(Oc4ccccc4)cc3)c2cc1OC
7. O=c1cc(-c2cccc3c2Sc2ccccc2S3)oc(N2CCOCC2)c1
8. CCN(CC)CCNC(=O)c1c(C)[nH]c(/C=C2\C(=O)Nc3ccc(F)cc32)c1C [Sunitinib Malate (Sutent)]

Out:
1: -0.0538; 2: 0.0473; 3: -0.129; 4: -0.249; 5: 0.365; 6: 0.0553; 7: -0.125; 8: -0.207
